# Test system: SK-MEL-28
# ASSAY_NAME: Cytotoxicity against human SK-MEL-28 cells assessed as cell growth at 10 uM after 48 hrs by SRB assay relative to control
# Assay type: functional
# APPLIED_CONDITIONS: SK-MEL-28, 48 h, read-out: Activity
I'd be grateful if you could share measured growth at 10 µM for these entries.
One number for each entry, in %.

Here's what some known entries look like.
                               query_smiles  data_value
0           O=C1c2ccccc2C(=O)c2c1ccc1nsnc21        15.5
1  O=C1c2ccccc2C(=O)c2c1cc(Sc1cccc(Cl)c1)c1nsnc21          25
2  Cc1ccccc1Sc1cc2c(c3nsnc13)C(=O)c1ccccc1C2=O         106
3  O=C1c2ccccc2C(=O)c2c1cc(Sc1cc(Cl)ccc1Cl)c1nsnc21         123

// each compound listed below needs its growth at 10 µM
1. CC(C)Sc1cc2c(c3nsnc13)C(=O)c1ccccc1C2=O
2. CSc1ccc(Sc2cc3c(c4nsnc24)C(=O)c2ccccc2C3=O)cc1

[reply]
1. -8.32
2. 120

###

Please go through the items and note down their LC50.
# System: HT-29
# ASSAY_NAME: Cytotoxicity against human HT-29 cells after 48 hrs by SRB assay
# Assay type: functional
# APPLIED_CONDITIONS: HT-29, 48 h
Answers are plain numbers, in µM.

                              query_smiles  endpoint  data_value
0  CC(C)Sc1cc2c(c3nsnc13)C(=O)c1ccccc1C2=O      LC50        92.7

[ask] Record request: LC50 value, item O=C1c2ccccc2C(=O)c2c1cc(Sc1cccc(Cl)c1)c1nsnc21
[reply] 100

###

# Test system: NCI-H322M
# ASSAY_NAME: Cytotoxicity against human NCI-H322M cells after 48 hrs by SRB assay
# Assay type: functional
Kindly supply the reported GI50 values for the records listed here.
Answers are plain numbers, in µM.

>>> df
                               query_smiles  data_value
0  O=C1c2ccccc2C(=O)c2c1cc(Sc1ccc(F)cc1F)c1nsnc21        96.5
1   CC(C)Sc1cc2c(c3nsnc13)C(=O)c1ccccc1C2=O        2.85

[ask] Lab note: need GI50 for O=C1c2ccccc2C(=O)c2c1cc(Sc1cccc(Cl)c1)c1nsnc21 on NCI-H322M, anyone have it?
[reply] 18.6

###

# Tested on: SF-295
# ASSAY_NAME: Cytotoxicity against human SF295 cells assessed as cell growth at 10 uM after 48 hrs by SRB assay relative to control
# Type: functional
# APPLIED_CONDITIONS: SF-295, 48 h, read-out: Activity
Rule: growth at 10 µM below 90% gives Criterion met, anything at or above gives Criterion not met.

                               query_smiles        class_label
0           O=C1c2ccccc2C(=O)c2c1ccc1nsnc21  Criterion not met
1  O=C1c2ccccc2C(=O)c2c1cc(Sc1ccc(F)cc1F)c1nsnc21      Criterion met
2   CC(C)Sc1cc2c(c3nsnc13)C(=O)c1ccccc1C2=O      Criterion met
3  CSc1ccc(Sc2cc3c(c4nsnc24)C(=O)c2ccccc2C3=O)cc1  Criterion not met
4  O=C1c2ccccc2C(=O)c2c1cc(Sc1ccccc1)c1nsnc21  Criterion not met

[ask] State whether 90% exceeds growth at 10 µM recorded for O=C1c2ccccc2C(=O)c2c1cc(Sc1ccccc1Br)c1nsnc21 .
[reply] Criterion not met

[ask] Confirm or reject: growth at 10 µM of O=C1c2ccccc2C(=O)c2c1cc(Cl)c1nsnc21 lies strictly below 90%
[reply] Criterion not met

[ask] Hello, is growth at 10 µM of the following compound strictly smaller than 90%? O=C1c2ccccc2C(=O)c2c1cc(Sc1cc(Cl)ccc1Cl)c1nsnc21
[reply] Criterion met

[ask] Answer whether the compound Cc1ccccc1Sc1cc2c(c3nsnc13)C(=O)c1ccccc1C2=O has growth at 10 µM strictly less than 90%
[reply] Criterion not met

[ask] Criterion: growth at 10 µM strictly below 90%. Is it met by O=C1c2ccccc2C(=O)c2c1cc(Sc1ccc(Cl)cc1)c1nsnc21 ?
[reply] Criterion not met

###

Field: TGI. Provide a value for each of the compounds that follow.
# Tested on: SF-295
# ASSAY_NAME: Cytotoxicity against human SF295 cells after 48 hrs by SRB assay
# Assay type: functional
# APPLIED_CONDITIONS: SF-295, 48 h

In [3]: df
Out[3]:
                               query_smiles  endpoint  data_value
0   CC(C)Sc1cc2c(c3nsnc13)C(=O)c1ccccc1C2=O       TGI      4.3 µM
1  O=C1c2ccccc2C(=O)c2c1cc(Sc1ccc(F)cc1F)c1nsnc21       TGI     44.2 µM
2  O=C1c2ccccc2C(=O)c2c1cc(SCc1ccccc1)c1nsnc21       TGI     > 50 µM

For every listed record, write down its TGI.
1. O=C1c2ccccc2C(=O)c2c1cc(Sc1cccc(Cl)c1)c1nsnc21
2. O=C1c2ccccc2C(=O)c2c1cc(Sc1ccccc1Br)c1nsnc21

[reply]
1: 22.9 µM; 2: > 50 µM

###

# Test system: SW-620
# ASSAY_NAME: Cytotoxicity against human SW620 cells after 48 hrs by SRB assay
# Format: functional
# APPLIED_CONDITIONS: SW-620, 48 h
Exercise: state measured TGI for each of the compounds provided.
One number for each entry, in µM.

The following compounds have reported results that may help.
In [3]: df
Out[3]:
                               query_smiles  unit_string  data_value
0  O=C1c2ccccc2C(=O)c2c1cc(SCc1ccccc1)c1nsnc21           µM        18.7
1   CC(C)Sc1cc2c(c3nsnc13)C(=O)c1ccccc1C2=O           µM        2.21
2  O=C1c2ccccc2C(=O)c2c1cc(Sc1cccc(Cl)c1)c1nsnc21           µM        5.21

Moving on to the next compound.
[ask] # returns recorded TGI (system: SW-620) for O=C1c2ccccc2C(=O)c2c1cc(Sc1ccc(F)cc1F)c1nsnc21
[reply] 16.3

###

Task for the reader: assign each of the following molecules its reported growth at 10 µM.
# System: NCI-H522
# ASSAY_NAME: Cytotoxicity against human NCI-H522 cells assessed as cell growth at 10 uM after 48 hrs by SRB assay relative to control
# Assay type: functional
# APPLIED_CONDITIONS: NCI-H522, 48 h, read-out: Activity
Answers are plain numbers, in %.

Example entries and their recorded answers appear below.
>>> df
                               query_smiles  unit_string  data_value
0  O=C1c2ccccc2C(=O)c2c1cc(Sc1ccccc1)c1nsnc21            %        94.9
1       O=C1c2ccccc2C(=O)c2c1cc(Cl)c1nsnc21            %        89.5
2  O=C1c2ccccc2C(=O)c2c1cc(Sc1ccc(Cl)cc1)c1nsnc21            %        93.4

State recorded growth at 10 µM for all listed molecules.
1. Cc1cc(C)cc(Sc2cc3c(c4nsnc24)C(=O)c2ccccc2C3=O)c1
2. Cc1ccccc1Sc1cc2c(c3nsnc13)C(=O)c1ccccc1C2=O

[reply]
1: 106; 2: 74.8

###

# Test system: UO-31
# ASSAY_NAME: Cytotoxicity against human UO31 cells after 48 hrs by SRB assay
# Assay type: functional
# APPLIED_CONDITIONS: UO-31, 48 h
Provide the recorded GI50 for the entries that follow.
I'd appreciate it if you included the unit after the number.

In [3]: df
Out[3]:
                               query_smiles  data_value
0   CC(C)Sc1cc2c(c3nsnc13)C(=O)c1ccccc1C2=O     1.16 µM
1  O=C1c2ccccc2C(=O)c2c1cc(SCc1ccccc1)c1nsnc21     7.83 µM

Return reported GI50 values for all items listed beneath this line.
1. O=C1c2ccccc2C(=O)c2c1cc(Sc1cccc(Cl)c1)c1nsnc21
2. O=C1c2ccccc2C(=O)c2c1cc(Sc1ccccc1Br)c1nsnc21

[reply]
1: 1.78 µM; 2: 14.9 µM

[ask] Given the entry O=C1c2ccccc2C(=O)c2c1cc(Sc1ccc(F)cc1F)c1nsnc21 , report its measured GI50.
[reply] 3.03 µM

###

Hi there, I'd appreciate the recorded growth at 10 µM for every entry that follows.
# Tested on: HCT-15
# ASSAY_NAME: Cytotoxicity against human HCT15 cells assessed as cell growth at 10 uM after 48 hrs by SRB assay relative to control
# Format: functional
# APPLIED_CONDITIONS: HCT-15, 48 h, read-out: Activity
Give bare numbers, in %.

Guide cases for growth at 10 µM, answers given:
                               query_smiles  data_value
0  Cc1ccc(Sc2cc3c(c4nsnc24)C(=O)c2ccccc2C3=O)c(C)c1          83
1  O=C1c2ccccc2C(=O)c2c1cc(Sc1ccccc1)c1nsnc21        93.9
2  Cc1cc(C)cc(Sc2cc3c(c4nsnc24)C(=O)c2ccccc2C3=O)c1        90.9
3  Cc1cccc(C)c1Sc1cc2c(c3nsnc13)C(=O)c1ccccc1C2=O        47.5
4   CC(C)Sc1cc2c(c3nsnc13)C(=O)c1ccccc1C2=O        15.3
5       O=C1c2ccccc2C(=O)c2c1cc(Cl)c1nsnc21        96.8
6  CCOc1cccc(Sc2cc3c(c4nsnc24)C(=O)c2ccccc2C3=O)c1         103

Now consider the entry below.
[ask] Could you share which growth at 10 µM value was measured for O=C1c2ccccc2C(=O)c2c1cc(Sc1ccc(Cl)cc1)c1nsnc21 ?
[reply] 98.1
